Reference for the values: patent US9193722B2

# target.or.system: PKC delta kinase (Homo sapiens, UniProt Q05655)
# Sequence (Q05655 whole entry): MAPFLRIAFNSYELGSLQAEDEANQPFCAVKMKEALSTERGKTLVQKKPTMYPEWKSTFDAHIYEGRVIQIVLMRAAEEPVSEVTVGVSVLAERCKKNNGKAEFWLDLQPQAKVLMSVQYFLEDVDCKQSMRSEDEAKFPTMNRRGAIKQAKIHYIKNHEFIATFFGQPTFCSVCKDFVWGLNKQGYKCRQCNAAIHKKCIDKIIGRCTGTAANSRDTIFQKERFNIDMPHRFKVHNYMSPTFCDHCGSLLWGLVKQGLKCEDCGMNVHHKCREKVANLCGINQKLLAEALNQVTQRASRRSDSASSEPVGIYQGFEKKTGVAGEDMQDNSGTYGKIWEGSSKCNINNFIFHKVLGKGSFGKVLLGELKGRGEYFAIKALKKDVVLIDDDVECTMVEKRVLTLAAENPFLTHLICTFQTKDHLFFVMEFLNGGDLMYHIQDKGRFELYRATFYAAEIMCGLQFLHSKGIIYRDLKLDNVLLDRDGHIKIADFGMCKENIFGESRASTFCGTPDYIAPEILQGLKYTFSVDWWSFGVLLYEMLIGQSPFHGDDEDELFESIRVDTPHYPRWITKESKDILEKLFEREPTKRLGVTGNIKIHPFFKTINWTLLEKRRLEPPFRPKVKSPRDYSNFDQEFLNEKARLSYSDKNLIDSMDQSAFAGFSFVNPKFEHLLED
# procedure.summary: PKC delta kinase inhibition, coupled-enzyme (NADH absorbance) assay, Ki
# Assay type: biochemical
# condition.parameters: 150 μM ATP, 46 nM PKC delta kinase, 30° C.; read-out: Ki PKC delta
pKi: −log10 of the molar value.
observation.type: pKi

See these solved cases before continuing.
{"columns": ["compound", "pKi"],
 "data": [
  ["FC1(c2cccc(-c3n[nH]c4ncccc34)n2)CCNCC1 [Compound 83]", "> 6.30"],
  ["CC(C)C[C@H]1CN(c2cccc(-c3n[nH]c4ncc(Cl)cc34)n2)CCN1 [Compound 38]", "> 6.30"]
]}

// moving on: another record for pKi
CC(C)C[C@H]1CN(c2ccc(C(F)(F)F)c(-c3n[nH]c4ncccc34)n2)CC[C@@H]1N [Compound 85] yielded pKi of < 5.70
